Can you tell me cGMP Assay (EC50, pM) w/Casein for the items I'm about to list?
TGT: T1, human NPRA (human, UniProt P16066 33-1061)
T1 sequence (looked up): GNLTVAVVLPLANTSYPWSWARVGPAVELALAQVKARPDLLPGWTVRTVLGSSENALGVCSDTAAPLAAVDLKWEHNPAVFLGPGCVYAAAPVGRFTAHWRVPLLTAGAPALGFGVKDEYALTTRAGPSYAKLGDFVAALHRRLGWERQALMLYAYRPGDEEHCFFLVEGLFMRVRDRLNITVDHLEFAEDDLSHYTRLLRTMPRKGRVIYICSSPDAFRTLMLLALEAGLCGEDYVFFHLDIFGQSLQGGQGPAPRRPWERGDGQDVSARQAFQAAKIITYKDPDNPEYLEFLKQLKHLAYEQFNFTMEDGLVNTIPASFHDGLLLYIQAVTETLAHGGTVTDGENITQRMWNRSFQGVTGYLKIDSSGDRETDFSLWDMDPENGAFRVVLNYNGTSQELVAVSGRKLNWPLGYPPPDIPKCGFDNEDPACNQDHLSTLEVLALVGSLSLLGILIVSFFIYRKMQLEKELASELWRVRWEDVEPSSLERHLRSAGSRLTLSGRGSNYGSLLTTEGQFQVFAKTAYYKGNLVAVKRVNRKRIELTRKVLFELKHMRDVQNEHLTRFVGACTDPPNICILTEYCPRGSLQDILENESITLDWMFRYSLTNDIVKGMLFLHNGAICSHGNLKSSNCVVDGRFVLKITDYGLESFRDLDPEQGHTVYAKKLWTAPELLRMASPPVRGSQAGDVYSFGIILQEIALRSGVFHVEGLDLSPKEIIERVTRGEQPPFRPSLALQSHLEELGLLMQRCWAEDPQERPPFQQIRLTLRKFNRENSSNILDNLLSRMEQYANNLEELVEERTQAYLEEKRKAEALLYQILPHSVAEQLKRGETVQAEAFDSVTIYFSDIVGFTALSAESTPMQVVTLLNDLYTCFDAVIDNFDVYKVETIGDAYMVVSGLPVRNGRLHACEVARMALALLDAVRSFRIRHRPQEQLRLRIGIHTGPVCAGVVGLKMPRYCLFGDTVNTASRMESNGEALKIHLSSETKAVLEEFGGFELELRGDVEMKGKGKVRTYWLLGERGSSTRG
EXPERIMENT: cell-based or functional assay
Numbered stars: 1 amine (or outer) side, 2 acyl side, 3 side chain; on linkers, the order of the positions; unused ones are H or OH. Bridge positions count the residues as written; N and C are the ends. Square brackets hold non-standard residues; d marks the D form. * marks the point of attachment. thioacetal = thioacetal linkage between two cysteines (intrachain bond at the bracketed Cys); C20 diacid = O=C(O)CCCCCCCCCCCCCCCCCCC(=O)*; γGlu = O=C(O)[C@H](CCC(=O)[*:2])N[*:1]; 4Pal = N[C@@H](Cc1ccncc1)C(=O)O

BINDER: {C20 diacid}-[γGlu]EKEKEKGS[4Pal]RRSSCFGRKIDRIGHQSGLGCPSFRHGGKSSGAPPPS-NH2 (bridge 15-31 via thioacetal) [Example 80]
TEST_VALUE: 234 pM
--
BINDER: SXRRSSCFGGRIDRIGHYSGLGCPSFRHGGPPSXKPPPK (HOOC-(CH2)18-CO-(γGlu)-EKEKEKG-(AEEA)6-S-4Pal-RRSS[CFGGRIDRIGHYSGLGC]PSFRHGGPPS-Aib-KPPPK-NH2; thioacetal linkage between the bracketed Cys) [Example 97]
TEST_VALUE: 720 pM
--
BINDER: SXRRSSCFGGRIDRIGHQSGLGCPSFRHGGPPSXKPPPK (HOOC-(CH2)18-CO-(γGlu)-EKEKEKG-PEG24-S-4Pal-RRSS[CFGGRIDRIGHQSGLGC]PSFRHGGPPS-Aib-KPPPK-NH2; thioacetal linkage between the bracketed Cys) [Example 84]
TEST_VALUE: 1010 pM
--
BINDER: XEKEKEKGSXRRSSCFGGKIDRIGHQSGLGCPSFRHGGPSSGAPPPS (HOOC-(CH2)18-CO-(γGlu)-EKEKEKGS-4Pal-RRSS[CFGGKIDRIGHQSGLGC]PSFRHGGPSSGAPPPS-NH2; disulfide linkage between the bracketed Cys) [Example 36]
TEST_VALUE: 118 pM
--
BINDER: SXRRSSCFGGRIDRIGHQSGLGCPSFRHGGKSSGAPPPS (HOOC-(CH2)18-CO-(γGlu)-EKEKEKG-PEG12-S-4Pal-RRSS[CFGGRIDRIGHQSGLGC]PSFRHGGKSSGAPPPS-NH2; thioacetal linkage between the bracketed Cys) [Example 82]
TEST_VALUE: 623 pM

Qu. Tell me its cGMP Assay (EC50, pM) w/Casein given EKXRSSCFGGKIDRIGHYSGLGCPSFRHGSPSSGAPPPS (HOOC-(CH2)18-CO-(γGlu)-EKEKEKG-PEG24-EK-βAla-RSS[CFGGKIDRIGHYSGLGC]PSFRHGSPSSGAPPPS-NH2; thioacetal linkage between the bracketed Cys) [Example 6] as the entry.
Ans. 1530 pM
